- target-under-test: T1, human CD20 (human, UniProt P11836 1-297)
- T1 sequence (looked up): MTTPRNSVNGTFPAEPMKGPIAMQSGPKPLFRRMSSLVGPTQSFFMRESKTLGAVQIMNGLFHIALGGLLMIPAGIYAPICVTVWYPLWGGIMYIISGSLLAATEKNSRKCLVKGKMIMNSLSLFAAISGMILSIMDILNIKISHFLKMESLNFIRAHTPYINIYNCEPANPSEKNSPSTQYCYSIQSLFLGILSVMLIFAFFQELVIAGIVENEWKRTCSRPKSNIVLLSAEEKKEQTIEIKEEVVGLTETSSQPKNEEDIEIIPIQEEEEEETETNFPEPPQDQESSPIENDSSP
- method-summary: cell-based or functional assay
Field: EC50 µg/ml Ramos Apoptosis Cell Titer Glo. Provide a value for each of the binders that follow.
One number for each entry, in µg/mL.

INSERT INTO measurements (binder, recorded_value) VALUES
  ('mAb 2.2.2 (antibody, human IgG1, V domains shown) VH: EVQLVQSGAEVKKPGESLKISCKGSGYSFTSYWIGWVRQMPGKGLEWMGIIYPGDSDTKYSPSFQGQVTISADKSISTAYLQWSSLKASDTAMYYCARQGDFWSGNGGMDVWGQGTTVTVSS VL: DIVMTQTPLSSPVTLGQPASISCRSSQSLVSRDGNTYLSWLQQRPGQPPRLLIYKISNRFSGVPDRFSGSGAGTDFTLKISRVEVEDVGVYYCMQATQFPITFGQGTRLEIK', 0.139),
  ('mAb 1.12.3 (antibody, human IgG1, V domains shown) VH: EVQLVQSGAEVKKPGESLKISCKGSGYSFTSYWIGWVRQMSGKGLEWMGIIYPGDSDTRYSPSFQGQVTISADKSISTAYLQWSSLKASDTAIYYCARHPSYGSGSPNFDYWGQGTLVTVSS VL: DIVMTQTPLSSPVTLGQPASISCRSSQSLVYSDGNTYLSWLQQRPGQPPRLLFYKISNRFSGVPDRFSGSGAGTDFTLKISRVEAEDVGVYYCVQATQFPLTFGGGTKVEIK', 0.0989);

# batch: return EC50 µg/ml Ramos Apoptosis Cell Titer Glo for each of the 4 binders below
1. mAb 1.6.2 (antibody, human IgG1, V domains shown) VH: EVQLVQSGAEVKKPGESLKISCKGSGYSFTSYWIGWVRQMPGKGLEWMGIIYPGDSDTRYSPSFQGQVTISADKSISTAYLQWSSLKASDTAMYYCARHGDYSNIDAFDIWGQGTMVTVSS VL: DVVMTQSPLSLPVTLGQPASISCRSSQSLVYSDGNAYLNWFQQRPGQSPRRLIYKVSNWDSGVPDRFSGSGSGTDFTLKIRRVEAEDVGAYYCMQGIHCTFGPGTKVHIK
2. mAb 1.13.2 (antibody, human IgG1, V domains shown, Human IgG1 kappa; also called 1.13.1; 50-001H1_13_1) VH: EVQLVQSGAEVKKPGESLKISCKGSGYSFTNYWIGWVRQMPGKGLEWMGIIYPGDSDTRYSPSFQGQVTISADKSISTAYLQWSSLKASDTAMYYCARQGDYYHYSGMDVWGQGTTVTVSS VL: DVVMTQSPLSLSVTLGQPASISCRSSQSLVYNDGDTYLNWFQQRPGQSPRLLIYKVSNWDSGVPDRFSGSGSGTDFTLKVSRVEAEDVGVYYCMQGTHWPLTFGGGTKVEIK
3. mAb 2.1.2 (ATCC Accession Number PTA-7328) (antibody, human IgG1, V domains shown, Human IgG1 kappa; also called 2.1.1; 50-001H2_1_1) VH: EVQLVQSGAEVKKPGESLKISCKGSGYSFTSYWIGWVRQMPGKGLEWMGIIYPGDSDTRYSPSFQGQVTISADKSISTAYLQWSSLKASDTAMYYCARQGDFWSGYGGMDVWGQGTTVTVSS VL: DIVMTQTPHSSPVTLGQPASISCRSSQSLVSRDGNTYLSWLQQRPGQPPRLLIYKISNRFSGVPNRFSGSGAGTDFTLKISRVKAEDVGVYYCMQATQFPLTFGQGTRLEIK
4. mAb 1.2.1 (antibody, human IgG1, V domains shown, Human IgG1 kappa; also called 1.2.1.1; 50-001H1_2_1_1) VH: EVQLVQSGAEVKKPGESLKISCKGSGYSFTSYWIGWVRQMPGKGLEWMGIIYPGDSDTRYSPSFQGQVTISADKSISTAYLQWSSLKASDTAMYYCARLGDYYNYYGMDVWGQGTTVTVSS VL: DIVMTQTPLSSPVTLGQPASISCRSSQSLVHSDGKTYLSWLQQRPGQPPRLLIYKSSNRFSGVPDRFSGSGAGTDFTLKISRVEAEDVGVYYCVQATQFPITFGQGTRLEIK

1: 0.476; 2: 1.44; 3: 0.0135; 4: 15.2

Where these numbers come from: patent US20070014720A1
